This collection of values is drawn from patent US20260317324A1.

- TESTED_SYSTEM: BRAF V600E (Homo sapiens, UniProt P15056, V600E)
- Construct: endogenous C-terminal HiBiT fusion tag on BRAF V600E allele; endogenous in cells; host or cells: A375 clone 1F10 (CRISPR-Cas9 knock-in of the HiBiT tag; parental A375 from ATCC)
- Sequence (P15056 whole entry V600E, the tested form may be a part): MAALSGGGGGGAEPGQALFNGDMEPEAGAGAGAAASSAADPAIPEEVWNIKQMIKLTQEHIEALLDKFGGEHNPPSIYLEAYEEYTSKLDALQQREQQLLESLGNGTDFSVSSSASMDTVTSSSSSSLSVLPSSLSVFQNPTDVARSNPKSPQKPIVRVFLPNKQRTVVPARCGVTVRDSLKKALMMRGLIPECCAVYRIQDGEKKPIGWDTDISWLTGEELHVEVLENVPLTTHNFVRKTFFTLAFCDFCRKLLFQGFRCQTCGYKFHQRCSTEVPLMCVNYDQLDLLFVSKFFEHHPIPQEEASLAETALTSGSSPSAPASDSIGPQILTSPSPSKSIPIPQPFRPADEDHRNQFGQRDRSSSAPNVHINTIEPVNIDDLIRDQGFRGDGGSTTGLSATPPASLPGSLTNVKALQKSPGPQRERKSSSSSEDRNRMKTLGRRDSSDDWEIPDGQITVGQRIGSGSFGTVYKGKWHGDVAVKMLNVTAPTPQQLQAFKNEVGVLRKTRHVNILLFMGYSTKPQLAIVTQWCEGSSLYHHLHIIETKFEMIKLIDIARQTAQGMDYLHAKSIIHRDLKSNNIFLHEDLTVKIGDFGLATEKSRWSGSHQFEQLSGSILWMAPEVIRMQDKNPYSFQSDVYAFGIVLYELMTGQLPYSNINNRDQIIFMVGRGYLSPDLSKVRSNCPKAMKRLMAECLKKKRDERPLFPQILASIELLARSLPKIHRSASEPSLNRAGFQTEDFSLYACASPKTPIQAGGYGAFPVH
- TEST_DESCRIPTION: BRAF HiBiT degradation assay, C-terminal HiBiT-tagged BRAF V600E A375 cells (clone 1F10), Nano-Glo HiBiT Lytic assay
- Type: cell-based
- DETAILS: A375 (BRAF V600E, Class 1); DC50 at 50% degradation
OUTCOME_MEASURE: DC50

1) CCCS(=O)(=O)Nc1cc(Cl)cc(-c2cn(-c3ccc(N4CCN(CC5CCN(c6ccc([C@H]7CCC(=O)NC7=O)cc6)CC5)[C@@H](C)C4)cc3)nc2-c2ccncc2)c1F	< 10 nM
2) CCCS(=O)(=O)Nc1cccc(-c2nc(C3CCC4(CC3)CCN(CC[C@H]3CCN(c5ccc(C6CCC(=O)NC6=O)cn5)C3)CC4)sc2-c2ccnc(N)n2)c1F (mixture of isomers)	10 to 50 nM
3) CCCS(=O)(=O)Nc1cc(Cl)cc(-c2cn(-c3ccc(N4CCN(CC5CCN(c6ccc(N7CCC(=O)NC7=O)cc6)CC5)[C@@H](C)C4)cc3)nc2-c2ccncc2)c1F	10 to 50 nM
4) CCN(C)S(=O)(=O)Nc1cc(F)cc(-c2cn(-c3ccc(N4CCN(CC5CCN(c6ccc(C7CCC(=O)NC7=O)cn6)CC5)CC4)cc3)nc2-c2ccncc2)c1F (racemic)	< 10 nM
5) CCN(C)S(=O)(=O)Nc1cc(F)cc(-c2cn(-c3ccc(N4CCN(CC5CCN(c6ccc([C@H]7CCC(=O)NC7=O)cn6)CC5)CC4)cc3)nc2-c2ccncc2)c1F	< 10 nM
6) O=C1CC[C@H](c2ccc(N3CCC(CN4CCN(c5ccc(-n6cc(-c7cc(Cl)cc(NS(=O)(=O)C8CCCC8)c7F)c(-c7ccncc7)n6)cc5)CC4)CC3)cc2)C(=O)N1	< 10 nM

Turning now to a further record.
Dear colleague, I am looking for the recorded DC50 of the following compound: O=C1CCC(c2ccc(N3CCC(CN4CCN(c5ccc(-n6cc(-c7cc(F)cc(NS(=O)(=O)N8CCCC8)c7F)c(-c7ccncc7)n6)c(F)c5)CC4)CC3)nc2)C(=O)N1 (racemic)
< 10 nM
